Recorded TGI values for a group of compounds are listed next.
System: NCI/ADR-RES ovarian
Assay: NCI tumour cell line growth inhibition, 48 h
Write the number in µM without appending the unit.

Ask: Item under review: NC1=Nc2ccccc2Sc2nccn21 . Reported TGI?
Result: 72

Ask: Item under review: CCC(CO)Nc1nc(NCc2ccccc2)c2n[nH]c(C(C)C)c2n1 (configuration not stated) . Reported TGI?
Result: 39.2

Ask: Item under review: COc1ccc2c(c1)/C(=C\c1c(-c3ccccc3)nc3sccn13)C(=O)N2 . Reported TGI?
Result: 3.27

====

Recorded GI50 values for a group of molecules are listed next.
Test system: NCI-H23 lung
Experiment: NCI tumour cell line growth inhibition, 48 h

>>> result("C/C(COc1ccc2oc(-c3ccccc3)cc(=O)c2c1)=N\\O")
"88.5 µM"
>>> result("O=C1NN(C(=O)c2ccccc2)C(c2ccc(Cl)c(Cl)c2)=C/C1=C\\c1ccccc1[N+](=O)[O-]")
"1.04 µM"

Ask: Item under review: O=C1/C(=C/c2ccc(Cl)cc2)N=C(c2ccccc2)N1c1cc(C(F)(F)F)ccc1Cl . Reported GI50?
Result: 34.4 µM

Ask: Item under review: COc1cccc(C2SC(C)C(=O)N2NC(=O)C(O)c2ccccc2)c1 (stereo not given) . Reported GI50?
Result: > 100 µM

Ask: Item under review: OCC#Cc1ccccc1C#Cc1ccc(C#Cc2ccccc2C#CCO)cc1 . Reported GI50?
Result: 41.5 µM

Ask: Item under review: CCC(CO)Nc1nc(NCc2ccccc2)c2n[nH]c(C(C)C)c2n1 (stereo not given) . Reported GI50?
Result: 12.3 µM

Ask: Item under review: COc1cc(-c2n/c(=C\c3c(O)[nH]c4ccccc34)cc3c2=Nc2ccccc2-3)ccc1F . Reported GI50?
Result: 2.83 µM

Ask: Item under review: O=C(N/N=C/c1ccc([N+](=O)[O-])cc1)c1ccccc1Nc1ccnc(C(F)(F)F)c1 . Reported GI50?
Result: 9.47 µM

Ask: Item under review: COc1ccc(OC)c(-c2cc(-c3ccc(Cl)cc3)nn2-c2ccccc2)c1 . Reported GI50?
Result: 27.7 µM

Ask: Item under review: CCCCNC(=O)Oc1ccc(/C(=C(\C)c2ccc(OC)cc2)c2ccc(OCCN3CCCCC3)cc2)cc1 . Reported GI50?
Result: 4.06 µM
